Taken from patent US20170362228A1.

molecular target: estrogen receptor alpha (ESR1) (Homo sapiens); construct: endogenous in cells; host or cells: MCF7 breast cancer cells; assay: Breast Cancer Cell ERa High Content Fluorescence Imaging Degradation Assay (Example 901); assay type: cell-based; details: Table 1b; MCF7 breast cancer cells, 4 hours; plateau of the maximal effect
Sequence (P03372 whole entry): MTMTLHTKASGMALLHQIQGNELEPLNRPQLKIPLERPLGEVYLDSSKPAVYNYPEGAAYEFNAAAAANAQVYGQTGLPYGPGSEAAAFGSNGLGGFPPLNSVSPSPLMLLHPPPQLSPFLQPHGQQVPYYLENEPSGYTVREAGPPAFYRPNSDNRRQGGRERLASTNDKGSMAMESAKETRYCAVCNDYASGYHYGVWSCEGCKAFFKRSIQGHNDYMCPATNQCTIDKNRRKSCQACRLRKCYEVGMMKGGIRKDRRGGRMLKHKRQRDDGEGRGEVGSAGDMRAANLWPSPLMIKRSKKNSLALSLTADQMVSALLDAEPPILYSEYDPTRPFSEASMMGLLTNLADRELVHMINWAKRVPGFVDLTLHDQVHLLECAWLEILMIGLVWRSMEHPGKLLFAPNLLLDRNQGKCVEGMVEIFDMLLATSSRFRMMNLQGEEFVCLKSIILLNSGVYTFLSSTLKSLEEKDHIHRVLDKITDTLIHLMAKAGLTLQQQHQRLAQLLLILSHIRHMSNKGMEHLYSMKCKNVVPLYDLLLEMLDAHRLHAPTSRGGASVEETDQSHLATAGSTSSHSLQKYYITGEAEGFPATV
Parameter Measured: ER-alpha MCF7 HCS (S inf) (%)
Expressed in %, but write only the number.

Observe how each entry below is paired with its result.
C[C@@H]1Cc2c([nH]c3ccccc23)[C@@H](c2c(F)cc(C(O)C3CN(CCC(F)F)C3)cc2F)N1CC(F)(F)CO (stereo partly drawn)    −92
COc1cc([C@@H]2c3[nH]c4ccccc4c3C[C@@H](C)N2CC(F)(F)CO)ccc1[C@H](O)C1CN(CCCF)C1    −96

q: Returns the measured ER-alpha MCF7 HCS (S inf) for the input compound. Input: C[C@@H]1Cc2c([nH]c3ccccc23)[C@@H](c2c(F)cc([C@@H](F)C3CN(CCCF)C3)cc2F)N1C[C@@H](F)CO (single isomer, unassigned)
a: −100

q: Returns the measured ER-alpha MCF7 HCS (S inf) for the input compound. Input: C[C@@H]1Cc2c([nH]c3ccccc23)[C@@H](c2c(F)cc([C@@](C)(O)C3CN(CCCF)C3)cc2F)N1CC(F)(F)CO
a: −98

q: Returns the measured ER-alpha MCF7 HCS (S inf) for the input compound. Input: C[C@@H]1Cc2c([nH]c3ccccc23)[C@@H](c2c(F)cc([C@@H](O)C3CN(CCCF)C3)cc2F)N1C[C@H](F)CF
a: −100

q: Returns the measured ER-alpha MCF7 HCS (S inf) for the input compound. Input: C[C@@H]1Cc2c([nH]c3ccccc23)[C@@H](c2c(F)cc([C@](C)(O)C3CN(CCCF)C3)cc2F)N1CC(F)(F)CO
a: −84

###

Listed here are compounds together with their documented EC50.
system: MCF7 cells; experiment: In vitro cell proliferation assays (Examples 902 and 903), MCF7; format: cell-based; details: Homo sapiens, MCF7, Table 1b, read-out: ER-alpha MCF7 HCS (EC50)
Just the number plus its unit, please.

Observe how each entry below is paired with its result.
C[C@@H]1Cc2c([nH]c3ccccc23)[C@@H](c2c(F)cc([C@@](C)(O)C3CN(CCCF)C3)cc2F)N1CC(F)(F)CO [Compound 154]    0.058 nM
C[C@@H]1Cc2c([nH]c3ccccc23)[C@@H](c2c(F)cc(C(O)C3CN(CCC(F)F)C3)cc2F)N1CC(F)(F)CO (some centres unmarked) [Compound 153]    0.17 nM
COc1cc([C@@H]2c3[nH]c4ccccc4c3C[C@@H](C)N2CC(F)(F)CO)ccc1[C@@H](O)C1CN(CCCF)C1 [Compound 176]    5.8 nM
C[C@@H]1Cc2c([nH]c3ccccc23)[C@@H](c2ccc([C@@H](O)C3CN(CCCF)C3)c(F)c2)N1CC(F)(F)CO [Compound 172]    0.051 nM
C[C@@H]1Cc2c([nH]c3ccccc23)[C@@H](c2c(F)cc([C@@H](F)C3CN(CCCF)C3)cc2F)N1C[C@@H](F)CO (single isomer, unassigned) [Compound 157]    0.078 nM
C[C@@H]1Cc2c([nH]c3ccccc23)[C@@H](c2c(F)cc(CC3CN(CCCF)C3)cc2F)N1C[C@H](F)CO [Compound 166]    0.04 nM
CO[C@@H](c1cc(F)c([C@@H]2c3[nH]c4ccc(F)cc4c3C[C@@H](C)N2CC(F)(F)CO)c(F)c1)C1CN(CCCF)C1 [Compound 164]    0.38 nM
C[C@@H]1Cc2c([nH]c3ccccc23)[C@@H](c2c(F)cc([C@H](O)C3CN(CCCF)C3)cc2F)N1C[C@@H](F)CF [Compound 161]    0.13 nM

q: Returns the measured EC50 for the input compound. Input: CO[C@H](c1cc(F)c([C@@H]2c3[nH]c4ccccc4c3C[C@@H](C)N2CC(F)(F)CO)c(F)c1)C1CN(CCCF)C1 [Compound 170]
a: 0.078 nM

q: Returns the measured EC50 for the input compound. Input: C[C@@H]1Cc2c([nH]c3ccccc23)[C@@H](c2c(F)cc([C@](C)(O)C3CN(CCCF)C3)cc2F)N1CC(F)(F)CO [Compound 155]
a: 0.74 nM

q: Returns the measured EC50 for the input compound. Input: CO[C@@H](c1cc(F)c([C@@H]2c3[nH]c4ccccc4c3C[C@@H](C)N2CC(F)(F)CO)c(F)c1)C1CN(CCCF)C1 [Compound 169]
a: 0.108 nM

q: Returns the measured EC50 for the input compound. Input: C[C@@H]1Cc2c([nH]c3ccccc23)[C@@H](c2ccc([C@H](O)C3CN(CCCF)C3)c(F)c2F)N1CC(F)(F)CO [Compound 173]
a: 0.072 nM

q: Returns the measured EC50 for the input compound. Input: C[C@@H]1Cc2c([nH]c3ccccc23)[C@@H](c2c(F)cc([C@H](O)C3CN(CCCF)C3)cc2F)N1C[C@H](F)CF [Compound 163]
a: 0.2 nM

q: Returns the measured EC50 for the input compound. Input: C[C@@H]1Cc2c([nH]c3ccccc23)[C@@H](c2ccc([C@H](O)C3CN(CCCF)C3)c(F)c2)N1CC(F)(F)CO [Compound 171]
a: 0.087 nM
